Quick list: IC50 per entry.
- tgt: Pim-2 (Homo sapiens (Human))
- Sequence (Q9P1W9 whole entry): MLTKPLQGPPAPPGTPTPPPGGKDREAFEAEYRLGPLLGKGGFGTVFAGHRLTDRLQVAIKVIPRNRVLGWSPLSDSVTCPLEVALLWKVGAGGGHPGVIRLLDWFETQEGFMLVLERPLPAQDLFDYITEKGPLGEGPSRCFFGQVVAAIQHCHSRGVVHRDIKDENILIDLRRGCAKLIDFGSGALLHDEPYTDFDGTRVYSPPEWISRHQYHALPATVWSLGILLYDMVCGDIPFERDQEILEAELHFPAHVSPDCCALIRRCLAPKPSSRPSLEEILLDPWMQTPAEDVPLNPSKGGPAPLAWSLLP
- test details: Pim-Mn enzyme assay (HTRF, 384-well), Pim-2
- Format: biochemical
- reported conditions: Pim-2 enzyme 0.5 pM, ATP 1.5 μM, BAD (S112) 0.5 μM, HTRF, 22-point curve; read-out: Pim-2-Mn IC50 IP
Field format: number, assumed nM, no unit text.

- record smiles: "C[C@H]1NC(=O)c2cc(-c3cccc4cnc(NC5(C)CC5)nc34)[nH]c21"
  readout value: 1.6
- record smiles: "Cc1nc2cccc(-c3cc4c([nH]3)CCNC4=O)c2nc1N[C@H]1C[C@@H](NCCF)C1"
  readout value: 1
- record smiles: "Cc1nc2cccc(-c3cc4c([nH]3)CCNC4=O)c2nc1N[C@@H]1CCN(C(=O)OC(C)(C)C)C1"
  readout value: 116
- record smiles: "CC(=O)N1CCC[C@H](Nc2nc3c(-c4cc5c([nH]4)CCNC5=O)cccc3nc2C)C1"
  readout value: 137

Task item: Need IC50 of Cc1nc2cccc(-c3cc4c([nH]3)CCNC4=O)c2nc1N[C@H]1C[C@@H](N(CCF)CCF)C1 , thanks.
Reply: 12

Task item: Need IC50 of CC(=O)N1CCC(Nc2nc3c(-c4cc5c([nH]4)CCNC5=O)cccc3nc2C)CC1 , thanks.
Reply: 24.4

Task item: Need IC50 of Cc1nc2cccc(-c3cc4c([nH]3)CCNC4=O)c2nc1NCC1(C)COC1 , thanks.
Reply: 2.8

Task item: Need IC50 of CC(C)(C)Nc1nc2c(-c3cc4c([nH]3)CCNC4=O)cccc2c(=O)n1-c1cccnc1 , thanks.
Reply: 2.6
